Cited source for all entries: patent US4038287A

Assay: physchem
Type: physicochemical
Settings: water
experimental_endpoint: solubility (µg/mL)
Express it in µg/mL; write the number only.

Dear colleague, I am looking for the recorded solubility of the following compound: NC(=O)NC1NC(=O)NC1=O (stereo not shown) [Allantoin, allantoin] 6000

---

Experiment: Solubility (wt.% at 20° C.) in water and alcohol-water solutions
Assay type: physicochemical
experimental_endpoint: Solubility in 50% ethyl alcohol-water solution (wt.%)
API: value field is a number in wt.%; no unit string.

Check out these entries, answers already filled in.
• NC(=O)NC1NC(O)(NCCCC(N)C(=O)O)NC1=O (stereo not shown) [Allantoin/ornithine compound (B)] = 12.3
• NC(=O)NC1NC(O)(NCCCCC(N)C(=O)O)NC1=O (stereo not shown) [Allantoin/lysine compound (C)] = 9.6
• NC(=O)NC1NC(=O)NC1=O (stereo not shown) [Allantoin, allantoin] = 0.3

Which Solubility in 50% ethyl alcohol-water solution value belongs to N=C(NCCCC(N)C(=O)O)NC1(O)NC(=O)C(NC(N)=O)N1 (stereo not shown) [Allatoin/arginine (1:1) compound (A)] ? 19.8

---

A collection of compounds and their measured Solubility in 50% isopropyl alcohol-water solution
Assay: Solubility (wt.% at 20° C.) in water and alcohol-water solutions
Assay type: physicochemical
From the text: The solubility of pure allantoin at room temperature is 0.6 wt. % in water, 1.0 wt. % in glycerol and 0.3 wt. % in 50 vol. % aqueous solution of ethyl alcohol. In contrast, the solubilities of the compounds of the present invention in the aforementioned solvents are shown in Table I. It will be understood from Table I that all compounds of the present invention can be dissolved to make present in the solution much more allantoin than can be obtained by dissolving allantoin, per se. […]
Hi! Could you send only the number? It should be in wt.%, unit omitted.

Some compounds with recorded Solubility in 50% isopropyl alcohol-water solution:
* NC(=O)NC1NC(O)(NCCCCC(N)C(=O)O)NC1=O (stereo not shown) | 4.8
* NC(=O)NC1NC(O)(NCCCC(N)C(=O)O)NC1=O (stereo not shown) | 6.6
* N=C(NCCCC(N)C(=O)O)NC1(O)NC(=O)C(NC(N)=O)N1 (stereo not shown) | 9.9

Alright, here's another compound for you.
I'd like to know its Solubility in 50% isopropyl alcohol-water solution. The compound in question is NC(=O)NC1NC(=O)NC1=O (stereo not shown) 0.1

---

Assay: Solubility (wt.% at 20° C.) in water and alcohol-water solutions
Type: physicochemical
Settings: water
experimental_endpoint: solubility (mg/mL)
Please reply with the bare figure in mg/mL and do not write the unit itself.

Record excerpt, results attached:
- NC(=O)NC1NC(O)(NCCCC(N)C(=O)O)NC1=O (stereo not shown) [Allantoin/ornithine compound (B)]: 405
- N=C(NCCCC(N)C(=O)O)NC1(O)NC(=O)C(NC(N)=O)N1 (stereo not shown) [Allatoin/arginine (1:1) compound (A)]: 603
- NC(=O)NC1NC(=O)NC1=O (stereo not shown) [Allantoin, allantoin]: 6

Could you now look at the following compound, please?
Look up solubility for this compound: NC(=O)NC1NC(O)(NCCCCC(N)C(=O)O)NC1=O (stereo not shown) [Allantoin/lysine compound (C)] 300

---

Assay: Solubility (wt.% at 20° C.) in water and alcohol-water solutions
Type: physicochemical
experimental_endpoint: Solubility in 50% methyl alcohol-water solution (wt.%)
Report the figure in wt.% without appending any unit label.

Answered cases to consult:
- NC(=O)NC1NC(=O)NC1=O (stereo not shown) [Allantoin, allantoin]: 0.5
- NC(=O)NC1NC(O)(NCCCCC(N)C(=O)O)NC1=O (stereo not shown) [Allantoin/lysine compound (C)]: 21.7
- N=C(NCCCC(N)C(=O)O)NC1(O)NC(=O)C(NC(N)=O)N1 (stereo not shown) [Allatoin/arginine (1:1) compound (A)]: 43.3

Field: next compound
Param item = NC(=O)NC1NC(O)(NCCCC(N)C(=O)O)NC1=O (stereo not shown) [Allantoin/ornithine compound (B)] ; retrieve measured Solubility in 50% methyl alcohol-water solution. 26.2
